Kd overview
- experimentalTarget: calcineurin, WT CN (CNA_(1–370):CNB_(1–170)) (human) (UniProt Q08209)
- protocol: ITC; NHE1 or variants (30–50 µM, syringe) titrated into CN (5–10 µM, cell), 25 °C, 20 mM Tris–HCl pH 7.5, 100 mM NaCl, 1 mM CaCl2, 0.5 mM TCEP; single site-binding model

substance: NHE1ctΔ92 (PVIVIT) (from UniProt P19634 680-723) (domain or fragment)
experimentalTarget: calcineurin, WT CN (CNA_(1–370):CNB_(1–170)) (human) (UniProt Q08209)
displayUnit: nM
Kd: 4
//
substance: NHE1ct_(AVATAA) (NHE1 I680-Q815, P715A, I717A, I719A, D720A) (from UniProt P19634 680-815) (domain or fragment)
experimentalTarget: calcineurin, WT CN (CNA_(1–370):CNB_(1–170)) (human) (UniProt Q08209)
displayUnit: nM
Kd: 2400
